Target: T1, LIN7B, Q9HAP6
T1 sequence (Q9HAP6 88-185, limits assumed, looked up): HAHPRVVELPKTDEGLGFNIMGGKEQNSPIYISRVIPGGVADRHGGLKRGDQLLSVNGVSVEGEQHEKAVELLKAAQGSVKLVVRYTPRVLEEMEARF
Experiment: holdup assay
Parameters: key: below the threshold = too weak to quantify, mostly under pKd 3.1 to 4
Conditions: plain residues with an end cap or a label only (N-terminal biotin on a linker: ttds)
readout: pKd

The following binders have reported results that may help.
binder	readout	test_value
FVETQHQTQV [FAT3, Q8TDW7]	pKd	below the threshold
SHSSKGETAV [FZD7, O75084]	pKd	below the threshold
GRLLGLETNV [ARHGEF26, Q96DR7]	pKd	below the threshold
PFRSRSPSEV [GPR6, P46095]	pKd	below the threshold
KQVVPFSSSV [GDA, Q9Y2T3]	pKd	below the threshold
QRPYRRESEI [KCNJ12, Q14500]	pKd	below the threshold

Ask | Item under review: DLDEEEDTHL [PODXL, O00592] . Reported pKd?
Reply | below the threshold

Ask | What about PPRQRSETQV [HPV82-E6, Q9IR59] ?
Reply | below the threshold
